Reported IC50 is given for each of the following compounds.
# Test system: KRAS G12D mutant human gastric cancer cell AGS
# procedure_details: 3D cell proliferation inhibition assay, AGS
# Format: cell-based
# test_parameters: 168 h, 7 days, CTG, class symbols
value_kind: IC50

* C#Cc1c(F)ccc2cc(O)cc(-c3ncc4c(N5CC6CCC(C5)N6)nc(OCC5(CN6CC7CC6CN7CC6CCC7(CC6)CCN(C(=O)c6ccc(Cl)c(N8CCC(=O)NC8=O)c6)CC7)CC5)nc4c3F)c12 (stereo not drawn) | ≤ 50 nM
* C#Cc1c(F)ccc2cc(O)cc(-c3ncc4c(N5CC6CCC(C5)N6)nc(OCC5(CN6CCN(CCCCC7CCN(C(=O)c8ccc(Cl)c(N9CCC(=O)NC9=O)c8)CC7)CC6)CC5)nc4c3F)c12 | ≤ 50 nM
* C#Cc1c(F)ccc2cc(O)cc(-c3ncc4c(N5CC6CCC(C5)N6)nc(OCC56CC(CN7CCN(CCC8CCC9(CC8)CCN(C(=O)c8ccc(Cl)c(N%10CCC(=O)NC%10=O)c8)CC9)CC7)(C5)C6)nc4c3F)c12 | ≤ 50 nM
